# target.entity: TM7SF2_C184 (Homo sapiens, UniProt O76062)
# Construct: endogenous in cells; host or cells: 22Rv1
# Sequence (O76062 1-418): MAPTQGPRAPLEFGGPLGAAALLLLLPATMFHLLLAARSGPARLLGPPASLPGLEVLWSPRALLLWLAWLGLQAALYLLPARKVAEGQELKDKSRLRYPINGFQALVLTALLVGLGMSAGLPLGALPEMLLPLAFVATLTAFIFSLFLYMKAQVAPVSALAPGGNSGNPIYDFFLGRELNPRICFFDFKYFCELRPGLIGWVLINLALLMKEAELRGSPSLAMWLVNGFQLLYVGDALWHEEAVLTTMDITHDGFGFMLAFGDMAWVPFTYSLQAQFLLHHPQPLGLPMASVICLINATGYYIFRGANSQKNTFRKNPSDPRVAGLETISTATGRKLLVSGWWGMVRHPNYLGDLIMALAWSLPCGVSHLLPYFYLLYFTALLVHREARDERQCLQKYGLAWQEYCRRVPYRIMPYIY
# experiment: IA-DTB cysteine engagement
# Type: binding
# condition.set: 22Rv1 cells, 20 μM probe, 1 h, relative to DMSO
measurement.type: % engagement TM7SF2_C184 (%)

>  <compound>
C=CC(=O)N1C[C@H](c2ccc(Br)cc2)[C@H]1C(=O)Nc1cccc2cccnc12 [MY-3A]

>  <value.units>
%

>  <% engagement TM7SF2_C184>
66.5

$$$$
>  <compound>
C=CC(=O)N1C[C@@H](c2ccc(Br)cc2)[C@H]1C(=O)Nc1cccc2cccnc12 [MY-1A]

>  <value.units>
%

>  <% engagement TM7SF2_C184>
86.5

$$$$

P: C=CC(=O)N1C[C@H](c2ccc(Br)cc2)[C@H]1C(=O)Nc1cccc2cccnc12 [MY-3B]
Q: C=CC(=O)N1C[C@H](c2ccc(Br)cc2)[C@@H]1C(=O)Nc1cccc2cccnc12 [MY-1B]
Please compare: P and Q . Report which one has the smaller % engagement TM7SF2_C184 value. // caller expects the label of the chosen entry Q
(Q: 64%, P: 100%)
